Assay System: CK2α/CK2β interaction (human CK2α1–335, human CK2β1–193) (Homo sapiens, UniProt P68400)
Construct: human CK2α^1–335
Procedure Summary: Microscale thermophoresis (MST) assay of the CK2α/CK2β subunit interaction
// NB: equality with 90 nM counts as label 0; only Kd strictly below is label 1

compound="COc1cc([C@@H]2c3c([nH]c4ccccc34)[C@@H](C(=O)NCCc3c[nH]c4ccccc34)[C@@H]3C(=O)NC(=O)[C@H]23)cc(OC)c1OC (racemic) [(±)-14]" category_label="label 0"
compound="COc1cc([C@@H]2c3c([nH]c4ccccc34)[C@@H](C(=O)NCc3ccc(Cl)cc3)[C@@H]3C(=O)NC(=O)[C@H]23)cc(OC)c1OC (racemic) [(±)-13]" category_label="label 1"
compound="CCOC(=O)[C@@H]1c2[nH]c3ccccc3c2[C@@H](c2ccc([N+](=O)[O-])cc2)[C@H]2C(=O)NC(=O)[C@H]21 (racemic) [(±)-21a]" category_label="label 1"
compound="COC(=O)[C@H](CCSC)NC(=O)[C@@H]1c2[nH]c3ccccc3c2[C@@H](c2cc(OC)c(OC)c(OC)c2)[C@H]2C(=O)NC(=O)[C@H]21 [(–)-19b]" category_label="label 0"
compound="COC(=O)[C@H](CO)NC(=O)[C@H]1c2[nH]c3ccccc3c2[C@H](c2cc(OC)c(OC)c(OC)c2)[C@@H]2C(=O)NC(=O)[C@@H]21 [(+)-18a]" category_label="label 1"
compound="COC(=O)[C@H](Cc1c[nH]cn1)NC(=O)[C@@H]1c2[nH]c3ccccc3c2[C@@H](c2cc(OC)c(OC)c(OC)c2)[C@H]2C(=O)NC(=O)[C@H]21 [(–)-20b]" category_label="label 1"
compound="CCOC(=O)[C@H]1c2[nH]c3ccccc3c2[C@H](c2cc(OC)c(OC)c(OC)c2)[C@@H]2C(=O)NC(=O)[C@@H]21 (racemic) [(±)-9a]" category_label="label 1"
compound="CCOC(=O)[C@H]1c2[nH]c3ccccc3c2[C@H](c2ccc(N)cc2)[C@@H]2C(=O)N(Cc3ccccc3)C(=O)[C@@H]21 (racemic) [(±)-22c]" category_label="label 1"
compound="CCOC(=O)[C@@H]1c2[nH]c3ccccc3c2[C@@H](c2cc(OC)c(OC)c(OC)c2)[C@H]2C(=O)N(C)C(=O)[C@H]21 (racemic) [(±)-9b]" category_label="label 1"
compound="CNC(=O)[C@@H]1c2[nH]c3ccccc3c2[C@@H](c2cc(OC)c(OC)c(OC)c2)[C@H]2C(=O)NC(=O)[C@H]21 (racemic) [(±)-11]" category_label="label 0"
compound="COC(=O)[C@H](Cc1c[nH]cn1)NC(=O)[C@H]1c2[nH]c3ccccc3c2[C@H](c2cc(OC)c(OC)c(OC)c2)[C@@H]2C(=O)NC(=O)[C@@H]21 [(+)-20a]" category_label="label 0"
compound="COc1cc([C@@H]2c3c([nH]c4ccccc34)[C@@H](C(=O)N3CCCCC3)[C@@H]3C(=O)NC(=O)[C@H]23)cc(OC)c1OC (racemic) [(±)-16]" category_label="label 1"

###

Assay System: CK2α/CK2β interaction (human CK2α1–335, human CK2β1–193) (Homo sapiens)
Construct: human CK2α^1–335; made in house
Sequence (P68400 1-335): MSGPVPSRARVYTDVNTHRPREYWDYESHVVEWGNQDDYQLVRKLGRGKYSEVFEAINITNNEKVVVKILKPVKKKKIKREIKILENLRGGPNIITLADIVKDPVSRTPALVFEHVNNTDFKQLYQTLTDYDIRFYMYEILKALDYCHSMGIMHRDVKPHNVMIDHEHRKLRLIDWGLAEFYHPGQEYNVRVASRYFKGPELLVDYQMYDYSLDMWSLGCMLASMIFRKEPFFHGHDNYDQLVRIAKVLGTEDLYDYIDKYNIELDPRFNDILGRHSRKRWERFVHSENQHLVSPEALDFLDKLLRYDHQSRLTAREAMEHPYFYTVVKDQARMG
Procedure Summary: Microscale thermophoresis (MST) assay of the CK2α/CK2β subunit interaction
Format: binding
Test Parameters: MST; global analysis, KD′ = KD [1 + (ccompound/Ki)]; n.s. = KD′ not significantly different from KD; read-out: Inhibition of CK2α/CK2β Interaction Ki
pKi: −log10 of the molar value.
Endpoint Label: pKi

compound="COc1cc([C@@H]2c3c([nH]c4ccccc34)[C@@H](C(=O)NCCc3c[nH]c4ccccc34)[C@@H]3C(=O)NC(=O)[C@H]23)cc(OC)c1OC (racemic) [(±)-14]" assay_system="CK2α/CK2β interaction (human CK2α1–335, human CK2β1–193) (Homo sapiens)" endpoint_label=pKi test_value=5.42
compound="COC(=O)[C@H](CCSC)NC(=O)[C@@H]1c2[nH]c3ccccc3c2[C@@H](c2cc(OC)c(OC)c(OC)c2)[C@H]2C(=O)NC(=O)[C@H]21 [(–)-19b]" assay_system="CK2α/CK2β interaction (human CK2α1–335, human CK2β1–193) (Homo sapiens)" endpoint_label=pKi test_value=5.11
compound="COc1cc([C@@H]2c3c([nH]c4ccccc34)[C@@H](C(=O)O)[C@@H]3C(=O)NC(=O)[C@H]23)cc(OC)c1OC (racemic) [(±)-10]" assay_system="CK2α/CK2β interaction (human CK2α1–335, human CK2β1–193) (Homo sapiens)" endpoint_label=pKi test_value=5.72

The values you see were collected from paper PMC11722180.
